measurement.target: human 5-hydroxy-tryptamine2C (h5HT2C) receptor (Homo sapiens, UniProt P28335)
Construct: expressed in transfected cells; host or cells: CHO (Chinese Hamster Ovary) cells; membranes
Sequence (P28335 33-458): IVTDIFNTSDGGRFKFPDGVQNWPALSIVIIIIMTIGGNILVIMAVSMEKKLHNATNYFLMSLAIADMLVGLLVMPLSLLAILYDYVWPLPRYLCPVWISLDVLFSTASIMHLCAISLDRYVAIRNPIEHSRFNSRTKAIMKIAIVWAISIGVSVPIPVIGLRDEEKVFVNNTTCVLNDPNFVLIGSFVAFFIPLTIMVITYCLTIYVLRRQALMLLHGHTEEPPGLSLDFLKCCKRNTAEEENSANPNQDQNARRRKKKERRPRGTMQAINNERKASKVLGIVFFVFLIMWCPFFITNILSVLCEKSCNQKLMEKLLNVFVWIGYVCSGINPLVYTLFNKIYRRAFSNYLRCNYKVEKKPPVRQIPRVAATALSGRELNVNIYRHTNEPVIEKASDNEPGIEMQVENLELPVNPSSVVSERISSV
assay.method.text: 5HT2C Receptor Binding Test Procedure ([125I] DOI)
Where a name gives a salt, the structure may show the parent alone.
readout.type: pKi
Quick note: pKi values are minus log10 of concentrations in mol/L.

Need pKi of O=C1Nc2ccc(Cl)cc2N2CCNC[C@H]12 [Example 12] , thanks. 8.05

Can you share its pKi? I mean this compound: O=C1Nc2ccc(Cl)c(Cl)c2N2CCNCC12 (stereo not shown) [Example 10, Hydrochloride] 5.98

Need pKi, item Clc1cc2c(cc1Cl)N1CCNC[C@H]1CN2 (single isomer, unassigned) [Example 6, dihydrochloride] 8.10

Could you tell me which pKi is on file for Clc1cc2c(cc1Cl)N1CCNC[C@@H]1CN2 (single isomer, unassigned) [Example 5, dihydrochloride] ? 8.15

Name the recorded pKi for O=C1Nc2cc(Cl)c(Cl)cc2N2CCNC[C@H]12 [Example 2] . 8.38

What does the record list as pKi for O=C1Nc2cc(C(F)(F)F)c(Cl)cc2N2CCNCC12 (stereo not shown) [Example 7, Hydrochloride] ? 8.10

Field request: pKi | item: O=C1Nc2cc(Cl)c(Cl)cc2N2CCNCC12 (stereo not shown) [Example 1] 8.36

----------
measurement.target: human 5-HT2C receptor (Homo sapiens, UniProt P28335)
Construct: expressed in transfected cells; host or cells: CHO cells
assay.method.text: Stimulation of [3H] Inositol Monophosphate Production by 5HT2C Agonists
Format: cell-based
test.settings: read-out: 5HT2C % Emax (5HT, 100%)
Counter-ions that a name gives are not always drawn.
readout.type: Emax (%)
Hi! Could you send only the number? It should be in %, unit omitted.

Given `O=C1Nc2cc(Cl)c(Cl)cc2N2CCNC[C@H]12` , state its recorded Emax. 112

Entry under review: O=C1Nc2cc(Cl)c(Cl)cc2N2CCNCC12 (stereo not shown) . Reported Emax? 108

Consider the compound Clc1cc2c(cc1Cl)N1CCNC[C@H]1CN2 (single isomer, unassigned) [Example 6, dihydrochloride] and give its measured Emax. 77

Look up Emax for this compound: O=C1Nc2cc(C(F)(F)F)c(Cl)cc2N2CCNC[C@@H]12 [Example 8, Hydrochloride] 85

Item `O=C1Nc2cc(Cl)c(Cl)cc2N2CCNC[C@@H]12` has what recorded Emax? 89

Can you share its Emax? I mean this compound: Clc1cc2c(cc1Cl)N1CCNCC1CN2 (stereo not shown) [Example 4, dihydrochloride] 99

Bench note: what Emax did O=C1Nc2cc(C(F)(F)F)c(Cl)cc2N2CCNC[C@H]12 [Example 9, Hydrochloride] show? 100

Value lookup for Emax; key = `O=C1Nc2ccc(Cl)cc2N2CCNC[C@H]12` 95

Reported Emax for O=C1Nc2cc(C(F)(F)F)c(Cl)cc2N2CCNCC12 (stereo not shown) [Example 7, Hydrochloride] : what is it? 100

Query: Emax; subject: Clc1cc2c(cc1Cl)N1CCNC[C@@H]1CN2 (single isomer, unassigned) [Example 5, dihydrochloride] 100

These measurements were taken from patent US6476032B2.
